# Procedure Details: RNA encapsulation efficacy (EE %) by Quant-IT Ribogreen kit
# Type: physicochemical
# Setup Conditions: LNP, Formulation No. 010, RNA No. 331
Parameter Measured: EE (%)

Compound	EE (%)
CCCCC/C=C\C/C=C\CCCCCCCC(=O)N[C@@H](COC(=O)NCCN1CCCCCC1)C(=O)OCCCCCCCC(=O)OC(CCCCCCCC)CCCCCCCC [Lipid 602]	97.13
CCCCCCCC/C=C\CCCCCCCC(=O)NC(COC(=O)NCCN1CCCCC1)C(=O)OCCCCCCCCOC(=O)C(CCCCCC)CCCCCCCC (stereo not drawn) [Lipid 700]	96.73
CCCCC/C=C\C/C=C\CCCCCCCC(=O)NC(COC(=O)NCCN1CCCCC1)C(=O)OCCCCCC(=O)OCC(CCCCCCCC)CCCCCCCCCC (stereo not drawn) [Lipid 728]	96.83
CCCCC/C=C\C/C=C\CCCCCCCC(=O)N[C@@H](COC(=O)NCCN1CCCCC1)C(=O)OCCCCCCCC(=O)OC(CCCCCCCC)CCCCCCCC [Lipid 601]	95.98
CCCCC/C=C\C/C=C\CCCCCCCC(=O)NC(COC(=O)NCCN1CCCCC1)C(=O)OCCCCCCCC(=O)OC(CCCCCCCC)CCCCCCCC (stereo not drawn) [Lipid 549]	96.68
CCCCC/C=C\C/C=C\CCCCCCCC(=O)NC(COC(=O)NCCN1CCCCCC1)C(=O)OCCCCCC(=O)OCC(CCCCCCCC)CCCCCCCCCC (stereo not drawn) [Lipid 729]	95.94
CCCCC/C=C\C/C=C\CCCCCCCC(=O)NC(COC(=O)NCCN1CCCCCC1)C(=O)OCCCCCCCC(=O)OC(CCCCCCCC)CCCCCCCC (stereo not drawn) [Lipid 550]	94.88
CCCCC/C=C\C/C=C\CCCCCCCC(=O)N[C@H](COC(=O)NCCN1CCCCCC1)C(=O)OCCCCCC(=O)OC(CCCCCCCC)CCCCCCCC [Lipid 730]	96.20
CCCCCCCC/C=C\CCCCCCCC(=O)NC(COC(=O)NCCN1CCCCCC1)C(=O)OCCCCCCCCOC(=O)C(CCCCCC)CCCCCCCC (stereo not drawn) [Lipid 701]	95.09

###

# Procedure Details: LNP size and polydispersity index (PDI) by dynamic light scattering (Zetasizer)
# Type: physicochemical
# Setup Conditions: Formulation No. 001, RNA No. 331
Parameter Measured: PDI

Molecule	PDI
CCCCCCCCCCC(CCCCCCCC)COC(=O)CCCCCOC(=O)NC(COC(=O)NCCN1CCCCCC1)C(=O)OCCCCCC(=O)OCC(CCCCCCCC)CCCCCCCCCC (stereo not drawn) [Lipid 1021]	0.05

I. CCCCCCCCC(CCCCCC)C(=O)OCCCCCCCCOC(=O)NC(COC(=O)NCCN1CCCCC1)C(=O)OCCCCCCCCCCC(=O)OCCCCCC (stereo not drawn) [Lipid 928]
II. CCCCCCCCC(CCCCCC)C(=O)OCCCCCCCCOC(=O)NC(COC(=O)NCCN1CCCCCC1)C(=O)OCCCCCCCCOC(=O)C(CCCCCC)CCCCCCCC (stereo not drawn) [Lipid 889]
Pick one: I or II . Which one has the lower reported PDI? Write down the label of the entry you select.
I

###

# Tested on: IL-6
# Procedure Details: In vivo tolerability by IV: serum IL-6 by Luminex
# Parameters: species or system C57BL/6J mice
# Setup Conditions: Formulation No. 001, RNA No. 331, male C57BL/6J mice, 1.0 mg*kg/1 intravenous, 24 hours post injection
Entries and their measured IL-6 at 24 h follow.
Supply the numeric figure in pg/mL, leaving out any unit text.

Need IL-6 at 24 h of CCCCCCCCCCCOC(=O)NC(COC(=O)NCCN1CCCCC1)C(=O)OCCCCCCCC(=O)OC(CCCCCCCC)CCCCCCCC (stereo not drawn) , thanks.
2.77

Need IL-6 at 24 h of CCCCCCCCC(CCCCCC)C(=O)OCCCCCCCCOC(=O)NC(COC(=O)NCCN1CCCCCC1)C(=O)OCCCCCCCCOC(=O)C(CCCCCC)CCCCCCCC (stereo not drawn) , thanks.
4.69

Need IL-6 at 24 h of CCCCCCCCC(CCCCCC)C(=O)OCCCCCCCCOC(=O)NC(COC(=O)NCCN(C)C)C(=O)OCCCCCCCCOC(=O)C(CCCCCC)CCCCCCCC (stereo not drawn) , thanks.
5.01

Need IL-6 at 24 h of CCCCC/C=C\C/C=C\CCCCCCCCOC(=O)C(COC(=O)NCCN1CCCCCC1)NC(=O)OCCCCCCCCOC(=O)C(CCCCCC)CCCCCCCC (stereo not drawn) , thanks.
5.07

Need IL-6 at 24 h of CCCCCCCCCCCOC(=O)CCCCCOC(=O)C(COC(=O)NCCN1CCCCC1)NC(=O)OCCCCCCCCOC(=O)C(CCCCCC)CCCCCCCC (stereo not drawn) , thanks.
2.37

Need IL-6 at 24 h of CCCCC/C=C\C/C=C\CCCCCCCCOC(=O)C(COC(=O)NCCN1CCCCC1)NC(=O)OCCCCCCCCOC(=O)C(CCCCCC)CCCCCCCC (stereo not drawn) , thanks.
4.73
